- assay-procedure: A549 lung cancer cell viability effects, profiling panel, resazurin fluorescence, 24 h, PK04 Diversity Set (AID 1171); further: test concentration not given here
- condition-label: higher = more signal, called active from +8 up or from −8 down
Output TRUE for z-score not less than -0.03; output FALSE otherwise.

INSERT INTO results (chemical_string, label) VALUES
  ('C=C[C@@H](C)[C@@H](OC(=O)Nc1ccc(SC)cc1)c1ccc(OCCO)cc1', 'TRUE'),
  ('Nc1cc(Br)ccc1C(=O)O', 'TRUE'),
  ('NC(=O)[C@H]1[C@@H]2C(=O)O[C@@H](c3ccccc3)[C@@H](c3ccccc3)N2[C@@H](c2ccc(O)cc2)[C@]12C(=O)Nc1ccc(C#CC3=CCCCC3)cc12', 'FALSE'),
  ('O=C1O[C@H](c2ccccc2)[C@H](c2ccccc2)N2[C@H]1[C@@H](C(=O)O)[C@]1(C(=O)Nc3ccc(C#CC4(O)CCCCCC4)cc31)[C@H]2c1ccc(O)cc1', 'TRUE'),
  ('CC(=O)NCCCC[C@@H]1NC(=O)[C@H]2C[C@@H](C(=O)NCCCCCNC(=O)CS)[C@@H](c3cccc(OCCO)c3)N2C1=O', 'FALSE'),
  ('COC(=O)[C@@]1(Cc2ccccc2CN=[N+]=[N-])N=C(c2ccc(OCCCO)cc2)O[C@H]1c1ccccc1', 'FALSE');

Q. Determine whether this molecule has z-score no lower than -0.03: C=C[C@@H](C)[C@H](O)c1ccc(OCCO)cc1
A. TRUE

Q. Record O=C1C[C@@](C(=O)NCC(F)(F)F)(c2ccc([N+](=O)[O-])cc2)[C@@H](c2ccc(CO)cc2)N1CC12CC3CC(CC(C3)C1)C2 ; criterion: z-score no lower than -0.03. Met?
A. FALSE

====

- assay-procedure: inhibitors of hydroxyurea-induced Chk1 phosphorylation, primary screen, imaging, HeLa, phospho-Chk1 antibody, percent positive cells (AID 1186)
- condition-label: hydroxyurea-induced phospho-Chk1 immunofluorescence imaging, higher = more signal
The source made the active and inactive calls. The rule behind the calls is not given here.
# z-score annotations

Some compounds with recorded z-score:
INSERT INTO results (compound, value_measured) VALUES
  ('CN(C)C(=O)[C@@]1(Cc2ccccc2)COC(c2ccc(OCCCO)cc2)=N1', '-1.01 (inactive)'),
  ('O=C(CS)NCCCCCNC(=O)[C@@H]1C[C@@H]2C(=O)N[C@@H](Cc3ccccc3)C(=O)N2[C@@H]1c1cccc(OCCO)c1', '0.341 (inactive)'),
  ('C#C[C@@H](CC)O[Si](C#CCCCC#N)(C(C)C)C(C)C', '0.33 (inactive)'),
  ('COc1ccc(C#Cc2ccc3c(c2)[C@]2(C(=O)N3)[C@H](C(=O)Nc3nc4ccccc4s3)[C@H]3C(=O)O[C@H](c4ccccc4)[C@H](c4ccccc4)N3[C@@H]2c2ccccc2OCCO)cc1', '-0.347 (inactive)'),
  ('CC(C)C(=C=CC[C@H](O)c1cccc(OCCO)c1)CCO', '0.0348 (inactive)'),
  ('COC(=O)[C@@]1(Cc2ccc(F)cc2)[C@H]2c3cc(C(=O)N(C)C)n(Cc4ccc(O)c(OC)c4)c3C[C@H]2CN1C(=O)c1ccccc1', '-0.156 (inactive)');

Summary for this compound, CCCCC(=C=CC[C@H](O)c1ccc(OCCO)cc1)C[C@H](O)c1cc(Cl)cc(Cl)c1O : z-score is -0.0695 (inactive)

Recorded result, COCCOC(=O)N1C(=O)[C@@]2(c3cc(C#CCCO)ccc31)[C@H](C(=O)N1CCCCCCC1)[C@H]1C(=O)O[C@H](c3ccccc3)[C@H](c3ccccc3)N1[C@@H]2c1ccccc1OCCO , z-score: 0.204 (inactive)
